System: MS2 coat protein
Assay: apparent KD of MS2 coat protein; higher = weaker reporter binding
Conditions: Eterna round: R107; input ligand: theophylline 2 mM
Think of 40 nM as a floor: if apparent KD of MS2 coat protein stands on it or above, it is satisfied; beneath it, not satisfied.

# check: apparent KD of MS2 coat protein of GUGUUAUGGUCGGCCGCCACUCUGACAUGAGGAUCACCCAUGUUGUACAUGAGGAUCACCCAUGUGAGGACCGGGACACGUGCGA [Exclusion Tryptophan B GF10] is greater than or equal to 40 nM
satisfied

# check: apparent KD of MS2 coat protein of GCAACAUGAGGAUCACCCAUGUUUACUGAAGGAGCGAGACAGAACUCAGGUAGGUCGCAGACGGCGGAAUCGCCGACGACAUGGG [Exclusion Arginine A GF24] is greater than or equal to 40 nM
not satisfied

# check: apparent KD of MS2 coat protein of AAUAAUAAGGCGGCCGCCACUAAACAUGAGGAUCACCCAUGUCUCGCGGGCUUGCGUUGGGAAAGUAGGACCGGGCCAAUAAUAA [Exclusion - Tryptophan B (Freestyle 8)] is greater than or equal to 40 nM
not satisfied

# check: apparent KD of MS2 coat protein of AUAUUAAUCGGAAGGAGCGGUACAUGAGGAUCACCCAUGUGCGAAGCCAGCAGAUCCCGUUACCAGGUAGGUCGCCGAGUUAUGA [Begebe] is greater than or equal to 40 nM
not satisfied

# check: apparent KD of MS2 coat protein of AAUUAUCAGUCGGCCGCCACUGACACAUGAGGAUCACCCAUGUAACAUGGGUAAAAUUAACUGAACAGGACCGGGACAAAGGCUA [JR_ExcTryptoB_Sub008] is greater than or equal to 40 nM
satisfied

# check: apparent KD of MS2 coat protein of UGUAUGUGAUGGGAUACCAGACCAGCUGGUGAUACAUGAGGAUCACCCAUGUAAAUUUGGGUCCCUUGGCAGCCCAUCGCAUACU [SSTheo B #25] is greater than or equal to 40 nM
satisfied

---

Test system: MS2 coat protein
Test: apparent KD of MS2 coat protein; designed switch direction (-1 OFF switch, 1 ON switch): -1; higher = weaker reporter binding
Settings: input ligand: none
Think of 50 nM as a floor: if apparent KD of MS2 coat protein stands on it or above, it is class 1; beneath it, class 0.

# check: apparent KD of MS2 coat protein of ACAUGAGGAUCACCCAUGUGACCACGAUGGCUGAUGUAAAGACAGGAUAUGUGUGAAUAUCUAACACAGAAGGGUCUUGACUGG [Deportation 56 - Jieux - Exclusion NG 3] (Eterna round: R96, puzzle: Exclusion NG 3) is greater than or equal to 50 nM
class 0

# check: apparent KD of MS2 coat protein of AUCCAGCUAGGAUAUGCAGAGGCGAUCGCGGGCAUGUCCCAACAUGAGGAUCACCCAUGUAGAAGGAGCCAAGG [Eternabot (Original) Solution 48] (Eterna round: R97, puzzle: Exclusion 2) is greater than or equal to 50 nM
class 0

# check: apparent KD of MS2 coat protein of ACAUGUCAUUGAGGAUAUUGCACACAUGAGGAUCACCCAUGUAAACGGAUGCUCUUACGUGGGUUCGAGAAGGCGAUGUACAUU [Ex NG2 #94] (Eterna round: R96, puzzle: Exclusion NG 2) is greater than or equal to 50 nM
class 1

# check: apparent KD of MS2 coat protein of UACAAGCUUUUAAGAUCCUACAUGAGGAUCACCCAUGUGCUCGUCUUAUAACGUACUGUGACGAAAGUCACGGUACG [JL TOV1 3.21] (Eterna round: R97, puzzle: Sensor, turn-off variant 1) is greater than or equal to 50 nM
class 1

# check: apparent KD of MS2 coat protein of AUAAGGUGAGGAUAUCCACGACCCUACAUGAGGAUCACCCAUGUAUACAGUACGUGUAGAGGAGAAGGUACAUGUC [Eternabot (L2) Solution 78] (Eterna round: R97, puzzle: Exclusion 5) is greater than or equal to 50 nM
class 0

# check: apparent KD of MS2 coat protein of CACCUGAAGAGAGGAUAUCAUACAUGAGGAUCACCCAUGUAAUAAAUGAGAAUUUCGAAUGUAAUUGAGAAGGCUCAAUAAGGC [Ostricism 95 - Jieux - Exclusion NG 2] (Eterna round: R96, puzzle: Exclusion NG 2) is greater than or equal to 50 nM
class 0

# check: apparent KD of MS2 coat protein of UAUUAGUAAGGAUAUCUCUGCAUGGACGAAAGUCCAUGCAGAGAGAAGGUACAUGAGGAUCACCCAUGUUCAUU [Mod of Fisker 17 - Jieux - Exclusion 4] (Eterna round: R97, puzzle: Exclusion 4) is greater than or equal to 50 nM
class 0

# check: apparent KD of MS2 coat protein of AAGUAGAGCUAAGGAUAUAUAGAGUAGUAGAAGAUAGAAGGUAGAAGUAGAAGAUGAUGAUGAAGAUGAAGUAGAUGAAGUAGA [TEST1] (Eterna round: R96, puzzle: Exclusion NG 1) is greater than or equal to 50 nM
class 0

# check: apparent KD of MS2 coat protein of CCCAUGUUAGGAUAUAUGGAAGGGCAGACGGGCGCCCUAAGGUAGAAGGAACAUGAGGAUCACCCAUGUAAUAA [Zausteesre] (Eterna round: R97, puzzle: Exclusion 4) is greater than or equal to 50 nM
class 1
